target: Recombinant human factor B (Homo sapiens (Human)); test: Human Complement Factor B TR-FRET Assay; format: binding; settings: hFactor-B TR-FRET Qualified IC50, displacement of labeled factor B ligand; * = assay behavior at and above the stated concentration prevented IC50 determination
observation_type: IC50 (nM)
Respond with the bare value in nM.

IC50 for COc1cc(C)c2[nH]ccc2c1CN1CCC2(CC1c1ccc(C(=O)O)cc1)CC(F)(F)C2 (racemic) ?
2.5

###

// reported log10 IC50 for each item listed
molecular target: Recombinant human factor B (Homo sapiens (Human)); experiment: Human Complement Factor B TR-FRET Assay; format: binding; settings: displacement of labeled factor B ligand; * = assay behavior at and above the stated concentration prevented IC50 determination; read-out: hFactor-B TR-FRET Qualified IC50
Could you please treat all values as log10 of IC50 in nM?

>>> print(df.to_string())
                                   compound  endpoint_result
0  COc1cc(C)c2[nH]ccc2c1CN1CCC2(CC1c1ccc(C(=O)O)cc1)CC(C)(O)C2 (racemic) [Ex-13]             1.47
1  Cc1cc(C2CC2)c(CN2CCC3(C[C@H]2c2ccc(-n4cccn4)cc2)CC(F)(F)C3)c2cc[nH]c12 (single isomer, unassigned)             0.58

What value of log10 IC50 on Recombinant human factor B (Homo sapiens (Human)) does Cc1cc(C2CC2)c(CN2CCC3(C[C@H]2c2ccc(-c4nnn[nH]4)cc2)CC(F)(F)C3)c2cc[nH]c12 (single isomer, unassigned) have?
0.20

Form entry - test system: Recombinant human factor B (Homo sapiens (Human)); read-out: log10 IC50; compound: COc1cc(C)c2[nH]ccc2c1CN1CCC2(CCC(F)(F)C2)C[C@H]1c1ccc(C(=O)O)cc1 (single isomer, unassigned) [Ex-20]
0.88

log10 IC50 of COc1cc(C)c2[nH]ccc2c1CN1CCC2(CCC(F)(F)C2)C[C@@H]1c1ccc(C(=O)O)cc1 (single isomer, unassigned) [Ex-17] on Recombinant human factor B (Homo sapiens (Human))?
2.51

Param readout = log10 IC50; param system = Recombinant human factor B (Homo sapiens (Human)); param query = `COc1cc(C)c2[nH]ccc2c1CN1CCC2(C[C@H]1c1cnn(CC(=O)O)c1)CC(F)(F)C2` ; response: value
0.97

Please state recorded log10 IC50 (tested on Recombinant human factor B (Homo sapiens (Human))) of COc1cc(C)c2[nH]ccc2c1CN1CCC2(C[C@H]1c1ccc(C(=O)O)cc1)CC2(F)F (stereo partly shown)
1.17

###

Listing of entries alongside the reported IC50.
molecular target: Recombinant human factor B (Homo sapiens (Human)); test: Human Complement Factor B TR-FRET Assay; format: binding; details: displacement of labeled factor B ligand; * = assay behavior at and above the stated concentration prevented IC50 determination; read-out: hFactor-B TR-FRET Qualified IC50
Reply with the number and its unit after it.

In [3]: df
Out[3]:
                                   molecule  observation_type  endpoint_result
0  COc1cc(C)c2[nH]ccc2c1CN1CCC2(C[C@@H]1c1ccc(C(=O)O)cc1)CC(C)(F)C2 (single isomer, unassigned) [Ex-4]              IC50           461 nM

For Cc1cc(C2CC2)c(CN2CCC3(C[C@@H]2c2ccc(-c4nnn[nH]4)nc2)CC(F)(F)C3)c2cc[nH]c12 (single isomer, unassigned) , what is its reported IC50?
434 nM

Field request: IC50 | item: Cc1cc(C2CC2)c(CN2CCC3(C[C@H]2c2ccc(-c4ccn[nH]4)cc2)CC(F)(F)C3)c2cc[nH]c12 (single isomer, unassigned)
5.1 nM

Name the recorded IC50 for Cc1cc(C2CC2)c(CN2CCC3(CC2c2ccc(-c4nnn[nH]4)nc2)CC(F)(F)C3)c2cc[nH]c12 (racemic) .
3.8 nM

For `Cc1cc(C)c2[nH]ccc2c1CN1CCC2(C[C@H]1c1ccc(C(=O)O)cc1)CC(F)(F)C2` , what is its reported IC50?
2.4 nM

Given the molecule Cc1cc(C2CC2)c(CN2CCC3(CC2c2ccc(-n4cccn4)cc2)CC(F)(F)C3)c2cc[nH]c12 (racemic) , what is its reported IC50?
7 nM

Please report the recorded IC50 for `Cc1cc(C2CC2)c(CN2CCC3(C[C@@H]2c2ccc(C(=O)O)nc2)CC(F)(F)C3)c2cc[nH]c12` .
337 nM

###

target: Recombinant human factor B (Homo sapiens (Human), UniProt P00751); assay: Human Complement Factor B TR-FRET Assay; format: binding; conditions: displacement of labeled factor B ligand; * = assay behavior at and above the stated concentration prevented IC50 determination; read-out: hFactor-B TR-FRET Qualified IC50
Sequence (P00751 26-764): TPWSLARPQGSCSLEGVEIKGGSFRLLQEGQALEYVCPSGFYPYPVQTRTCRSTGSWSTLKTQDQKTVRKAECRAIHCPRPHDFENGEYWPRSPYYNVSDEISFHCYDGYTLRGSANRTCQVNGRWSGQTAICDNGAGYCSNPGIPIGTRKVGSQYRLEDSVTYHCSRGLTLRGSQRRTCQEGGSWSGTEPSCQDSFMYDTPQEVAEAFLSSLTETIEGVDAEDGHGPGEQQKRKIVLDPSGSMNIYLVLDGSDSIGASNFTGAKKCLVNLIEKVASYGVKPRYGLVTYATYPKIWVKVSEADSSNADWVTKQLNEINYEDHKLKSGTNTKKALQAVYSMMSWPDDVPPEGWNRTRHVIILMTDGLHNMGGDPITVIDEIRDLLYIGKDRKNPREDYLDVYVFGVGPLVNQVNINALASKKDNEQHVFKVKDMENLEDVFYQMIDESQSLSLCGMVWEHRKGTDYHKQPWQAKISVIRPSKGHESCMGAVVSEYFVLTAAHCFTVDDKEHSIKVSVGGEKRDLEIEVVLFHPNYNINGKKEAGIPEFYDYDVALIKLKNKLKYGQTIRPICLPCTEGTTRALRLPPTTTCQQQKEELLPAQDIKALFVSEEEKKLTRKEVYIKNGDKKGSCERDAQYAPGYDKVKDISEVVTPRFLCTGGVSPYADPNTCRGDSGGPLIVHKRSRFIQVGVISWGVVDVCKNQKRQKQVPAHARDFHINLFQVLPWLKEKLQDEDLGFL
Catalogue of IC50 readings, one per entry.

I'd like to know its IC50. The compound in question is COc1cc(C)c2[nH]ccc2c1CN1CCC2(C[C@H]1c1cnn(C)c1)CC(F)(F)C2 (single isomer, unassigned)
10.3 nM

GET /values?readout=IC50&item= COCCn1cc([C@@H]2CC3(CCN2Cc2c(OC)cc(C)c4[nH]ccc24)CC(F)(F)C3)cn1 (single isomer, unassigned)
9.9 nM

Recorded IC50 for COc1cc(C)c2[nH]ccc2c1CN1CCC2(CC1c1cnn(C)c1)CC(F)(F)C2 (racemic) , please?
24.5 nM

# input compound: COc1cc(C)c2[nH]ccc2c1CN1CCC2(CC1c1ccc(-c3nnn[nH]3)cc1)CC(F)(F)C2 (racemic) ; wanted: its IC50
2.2 nM

So what's the measured IC50 for this one? COc1cc(C)c2[nH]ccc2c1CN1CCC2(C[C@H]1c1ccc(-c3nnn[nH]3)cc1)CC(F)(F)C2 (single isomer, unassigned)
0.6 nM

Reported IC50, compound COc1cc(C)c2[nH]ccc2c1CN1CCC2(C[C@H]1c1ccc(-c3nnn[nH]3)nc1)CC(F)(F)C2 (single isomer, unassigned) : ____
2.1 nM

Look at this compound and give its reported IC50. COc1cc(C)c2[nH]ccc2c1CN1CCC2(C[C@H]1c1cnn(C(F)F)c1)CC(F)(F)C2 (single isomer, unassigned)
9.6 nM

###

molecular target: Recombinant human factor B (Homo sapiens (Human)); assay: Human Complement Factor B TR-FRET Assay; assay type: binding; conditions: displacement of labeled factor B ligand; * = assay behavior at and above the stated concentration prevented IC50 determination; read-out: hFactor-B TR-FRET Qualified IC50
observation_type: IC50 (nM)
Answer in nM, number only, no unit symbol.

Reference set, count: 5
>>> df
                                   compound                           target_of_assay  unit_label  endpoint_result
0  COc1cc(C)c2[nH]ccc2c1CN1CCC2(CC(F)C2)C[C@@H]1c1ccc(C(=O)O)cc1 (single isomer, unassigned) [Ex-8]  Recombinant human factor B (Homo sapiens (Human))          nM              227
1  COc1cc(C)c2[nH]ccc2c1CN1CCC2(C[C@@H]1c1cnn(CC(=O)O)c1)CC(F)(F)C2 [Ex-46]  Recombinant human factor B (Homo sapiens (Human))          nM             1460
2  Cc1cc(C2CC2)c(CN2CCC3(CC2c2ccc(C4(O)COC4)cc2)CC(F)(F)C3)c2cc[nH]c12 (racemic) [Ex-49]  Recombinant human factor B (Homo sapiens (Human))          nM              5.6
3  COc1cc(C)c2[nH]ccc2c1CN1CCC2(CC1c1ccccc1)CC(F)(F)C2 (racemic) [Ex-35]  Recombinant human factor B (Homo sapiens (Human))          nM             17.3
4  COc1cc(C)c2[nH]ccc2c1CN1CCC2(C[C@H]1c1ccccc1)CC(F)(F)C2 (single isomer, unassigned) [Ex-37]  Recombinant human factor B (Homo sapiens (Human))          nM             11.2

Need IC50 of COc1cc(C)c2[nH]ccc2c1CN1CCC2(COC2)C[C@@H]1c1ccc(C(=O)O)cc1 [Ex-12] , thanks.
5300

Item COc1cc(C)c2[nH]ccc2c1CN1CCC2(C[C@H]1c1ccc(C(=O)O)cc1)CC(F)(F)C2 [Ex-5] has what recorded IC50?
0.5

What value of IC50 has been reported for the following compound? Cc1cc(C2CC2(F)F)c(CN2CCC3(C[C@H]2c2ccc(C(=O)O)cc2)CC(F)(F)C3)c2cc[nH]c12 (single isomer, unassigned) [Ex-23]
8.9

###

biological target: Recombinant human factor B (Homo sapiens (Human)); assay: Human Complement Factor B TR-FRET Assay; format: binding; conditions: displacement of labeled factor B ligand; * = assay behavior at and above the stated concentration prevented IC50 determination; read-out: hFactor-B TR-FRET Qualified IC50
So basically, if IC50 comes in under 6 nM it's TRUE, and if it's 6 nM or more it's FALSE.

>>> print(df.to_string())
                                   compound                           target_of_assay  label_value
0  Cc1cc(C2CC2)c(CN2CCC3(C[C@H]2c2ccc(C(C)(C)O)cc2)CC(F)(F)C3)c2cc[nH]c12 (single isomer, unassigned) [Ex-27]  Recombinant human factor B (Homo sapiens (Human))        FALSE
1  Cc1cc(C2CC2)c(CN2CCC3(C[C@H]2c2ccc(-c4nnn[nH]4)nc2)CC(F)(F)C3)c2cc[nH]c12 (single isomer, unassigned) [Ex-62]  Recombinant human factor B (Homo sapiens (Human))         TRUE
2  COc1cc(C)c2[nH]ccc2c1CN1CCC2(C[C@@H]1c1cnn(C(F)F)c1)CC(F)(F)C2 (single isomer, unassigned) [Ex-42]  Recombinant human factor B (Homo sapiens (Human))        FALSE

For COc1cc(C)c2[nH]ccc2c1CN1CCC2(COC2)C[C@H]1c1ccc(C(=O)O)cc1 [Ex-11] , is the recorded IC50 below the cut-off of 6 nM?
TRUE

Threshold test, IC50 < 6 nM: Cc1cc(C)c2[nH]ccc2c1CN1CCC2(C[C@@H]1c1ccc(C(=O)O)nc1)CC(F)(F)C2 [Ex-69]
FALSE

Hello, I'm reviewing records and need to know if IC50 of Cc1cc(C)c2[nH]ccc2c1CN1CCC2(C[C@H]1c1ccc(C(=O)O)nc1)CC(F)(F)C2 [Ex-68] is below 6 nM. Could you check?
TRUE

Quick check: IC50 of Cc1cc(C2CC2)c(CN2CCC3(CC2c2ccc(-c4ccn[nH]4)cc2)CC(F)(F)C3)c2cc[nH]c12 (racemic) [Ex-51] under 6 nM?
TRUE
